Ref: ChEMBL document CHEMBL5291721

Sodium-dependent dopamine transporter (Homo sapiens, UniProt Q01959) measurements of AC50, listed per entry. Note: assay procedure not described here.
Sequence (Q01959 whole entry): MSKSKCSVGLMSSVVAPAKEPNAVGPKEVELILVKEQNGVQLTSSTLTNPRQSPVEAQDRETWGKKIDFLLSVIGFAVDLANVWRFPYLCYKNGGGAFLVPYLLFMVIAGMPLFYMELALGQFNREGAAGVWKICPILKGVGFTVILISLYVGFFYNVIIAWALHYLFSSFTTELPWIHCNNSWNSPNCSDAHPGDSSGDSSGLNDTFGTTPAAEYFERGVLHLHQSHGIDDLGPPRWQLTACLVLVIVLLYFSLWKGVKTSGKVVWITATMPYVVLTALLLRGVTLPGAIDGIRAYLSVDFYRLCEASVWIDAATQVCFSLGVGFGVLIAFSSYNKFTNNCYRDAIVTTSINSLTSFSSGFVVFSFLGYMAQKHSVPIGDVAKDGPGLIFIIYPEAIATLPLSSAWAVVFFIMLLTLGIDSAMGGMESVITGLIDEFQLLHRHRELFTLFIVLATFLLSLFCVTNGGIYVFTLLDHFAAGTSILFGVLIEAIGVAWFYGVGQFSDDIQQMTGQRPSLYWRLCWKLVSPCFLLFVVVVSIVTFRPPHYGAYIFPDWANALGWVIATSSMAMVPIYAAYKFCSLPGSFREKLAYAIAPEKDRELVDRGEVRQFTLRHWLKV

As a guide, the following entries are already answered.
O=c1[nH]c(=O)n(C2CCCO2)cc1F (configuration not stated) | > 30 µM
CC(=O)OCC1=C(C(=O)O)N2C(=O)[C@@H](NC(=O)[C@H](N)c3ccccc3)[C@H]2SC1 | > 30 µM
CC(C)Nc1ncccn1 | > 30 µM
CC(C)(C)C(=O)OCOC(=O)[C@@H]1N2C(=O)[C@@H](NC(=O)[C@H](N)c3ccccc3)[C@H]2SC1(C)C | > 30 µM
CC(C)(C)CC(C)(C)c1ccc(O)c(Cc2ccc(Cl)cc2Cl)c1 | 3.54 µM
CCN1CCCC1CNC(=O)c1cc(S(N)(=O)=O)ccc1OC (configuration not stated) [SULPIRIDE] | > 30 µM
NC1=NCC2c3ccccc3Cc3ccccc3N12 (configuration not stated) [EPINASTINE] | > 30 µM
NNc1nnc(NN)c2ccccc12 [DIHYDRALAZINE] | > 30 µM
C[S+](CC[C@H](N)C(=O)[O-])C[C@H]1O[C@@H](n2cnc3c(N)ncnc32)[C@H](O)[C@@H]1O (some centres not stated) | > 30 µM
N[C@@H](C(=O)N[C@@H]1C(=O)N2C(C(=O)O)=C(Cl)CC[C@H]12)c1ccccc1 [LORACARBEF ANHYDROUS] | > 30 µM

Fill in AC50 for each of the 5 compounds listed.
1. OB1OCc2cc(F)ccc21
2. CCC(CC)(CC(=O)Nc1cccc(/C=C/c2nc(C3CCC3)cs2)c1)C(=O)O
3. N[C@H]1C(O)O[C@H](CO)[C@@H](O)[C@@H]1O (some centres not stated)
4. CC[C@H]1CN2CCc3cc(OC)c(OC)cc3[C@@H]2C[C@@H]1C[C@H]1NCCc2cc(OC)c(OC)cc21
5. CCOC(=O)[C@H](CCc1ccccc1)N[C@@H](C)C(=O)N1CC2(C[C@H]1C(=O)O)SCCS2

1. > 30 µM
2. > 30 µM
3. > 30 µM
4. > 30 µM
5. > 30 µM

Fill in AC50 for each of the 7 compounds listed.
1. CCCNC(C)C(=O)Nc1c(C)csc1C(=O)OC (configuration not stated)
2. CC(C)(C)N1CCC(c2ccccc2)(c2ccccc2)CC1
3. CC[C@H]1[C@@H](O)[C@@H]2[C@H](CC[C@]3(C)[C@@H]([C@H](C)CCC(=O)O)CC[C@@H]23)[C@@]2(C)CC[C@@H](O)C[C@@H]12
4. O=C(Nc1ccc(Cl)cc1)Nc1ccc(Cl)c(Cl)c1
5. CCOc1ccc(Cc2cc([C@@H]3O[C@H](CO)[C@@H](O)[C@H](O)[C@H]3O)ccc2Cl)cc1
6. CC1(C)NC(=O)N(c2ccc([N+](=O)[O-])c(C(F)(F)F)c2)C1=O [NILUTAMIDE]
7. CCc1oc2ccccc2c1C(=O)c1cc(I)c(O)c(I)c1

1: > 30 µM; 2: > 30 µM; 3: > 30 µM; 4: > 10 µM; 5: > 30 µM; 6: > 30 µM; 7: 9.96 µM

Fill in AC50 for each of the 3 compounds listed.
1. Cc1cc(OP(=O)(O)O)c2ccccc2c1OP(=O)(O)O [MENADIOL SODIUM DIPHOSPHATE]
2. CCCCCCOc1nsnc1C1=CCCN(C)C1
3. CC(C)(C)NCC(O)COc1cccc2c1SCCC2 (configuration not stated)

1: > 30 µM; 2: 3.37 µM; 3: > 30 µM
